Data origin, for the record: ChEMBL document CHEMBL1782000

- Test system: Bacillus cereus
- Experiment: Bactericidal activity against Bacillus cereus clinical isolate after 24 hrs
- Assay type: functional
Entries and their MBC
Attribute measured: MBC (µM)

# Given smiles, Quantitative result
records = [
    ("CN[C@@H]1[C@H](O[C@H]2[C@H](O[C@H]3[C@H](O)[C@@H](O)[C@H](N=C(N)N)[C@@H](O)[C@@H]3N=C(N)N)O[C@@H](C)[C@]2(O)C=O)O[C@@H](CO)[C@H](O)[C@H]1O", 4.3),
    ("CNc1nc(C)c(C(=O)/C=C/c2cccc(Cl)c2)s1", 513),
    ("CNc1nc(C)c(C(=O)/C=C/c2c(Cl)cccc2Cl)s1", 306),
    ("CNc1nc(C)c(C(=O)/C=C/c2ccccc2OC)s1", 347),
]

----------
Entries and their MIC
- Tested on: Penicillium ochrochloron
- Experiment: Antifungal activity against Penicillium ochrochloron ATCC 9112 after 72 hrs by serial dilution method
- Assay type: functional
- Condition info: ATCC 9112, 72 h

# Molecule, Measurement target, MIC
rows = [
    ("CNc1nc(C)c(C(=O)/C=C/c2ccccc2OC)s1", "Penicillium ochrochloron", "340 µM"),
    ("CNc1nc(C)c(C(=O)/C=C/c2cccc([N+](=O)[O-])c2)s1", "Penicillium ochrochloron", "330 µM"),
    ("CNc1nc(C)c(C(=O)/C=C/c2cccc(Cl)c2)s1", "Penicillium ochrochloron", "340 µM"),
    ("CNc1nc(C)c(C(=O)/C=C/c2ccc(Cl)cc2)s1", "Penicillium ochrochloron", "340 µM"),
    ("c1ccc(-c2ccc(C(c3ccccc3)n3ccnc3)cc2)cc1 (stereo not given)", "Penicillium ochrochloron", "403 µM"),
]

----------
Entries and their MBC
- System: Escherichia coli
- Experiment: Bactericidal activity against Escherichia coli ATCC 35210 after 24 hrs
- Format: functional
- Condition info: ATCC 35210, 24 h

# Given smiles, MBC
records = [
    ("CNc1nc(C)c(C(=O)/C=C/c2ccccc2Cl)s1", "306 µM"),
    ("CC1(C)S[C@@H]2[C@H](NC(=O)[C@H](N)c3ccccc3)C(=O)N2[C@H]1C(=O)O", "372 µM"),
    ("CNc1nc(C)c(C(=O)/C=C/c2ccc(Cl)cc2Cl)s1", "459 µM"),
    ("CN[C@@H]1[C@H](O[C@H]2[C@H](O[C@H]3[C@H](O)[C@@H](O)[C@H](N=C(N)N)[C@@H](O)[C@@H]3N=C(N)N)O[C@@H](C)[C@]2(O)C=O)O[C@@H](CO)[C@H](O)[C@H]1O", "17.1 µM"),
]
